# targetOrTestSystem: human μ opiate receptor (Homo sapiens)
# Construct: purchased PerkinElmer Life Sciences, Zaventem, Belgium RB-HOM; host or cells: CHO-K1 cells (membrane preparation)
# Sequence (P35372 whole entry): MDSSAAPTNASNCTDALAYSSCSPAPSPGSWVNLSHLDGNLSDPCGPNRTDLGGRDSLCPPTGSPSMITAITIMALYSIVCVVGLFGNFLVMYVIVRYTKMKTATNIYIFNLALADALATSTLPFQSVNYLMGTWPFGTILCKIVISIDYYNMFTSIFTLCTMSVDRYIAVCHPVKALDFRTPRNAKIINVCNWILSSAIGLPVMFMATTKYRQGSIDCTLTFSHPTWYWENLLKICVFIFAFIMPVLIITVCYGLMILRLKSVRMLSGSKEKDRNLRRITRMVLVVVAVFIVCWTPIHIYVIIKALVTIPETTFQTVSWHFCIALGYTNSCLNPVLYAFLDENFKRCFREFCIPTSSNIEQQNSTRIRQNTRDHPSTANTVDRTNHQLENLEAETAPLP
# assayProcedure: Affinity for the human μ opiate receptor ([3H]-naloxone displacement, CHO-K1 receptor membrane preparation, SPA)
# Assay type: binding
# testContext: 1.5 h, Table 3, to be read in the same way as Table 1; test concentration 1 μM; read-out: μ
Listed next: entries and their corresponding inhibition at 1 µM.
Record the value in %, omitting the unit from your answer.

>>> measurement("CN(CCOCC(=O)NCC1CCC(C(c2ccccc2)N2CCCC2)CC1)S(=O)(=O)c1ccc(Cl)cc1Cl (centres unmarked)")
66
>>> measurement("O=C(COCC1CCCCN1S(=O)(=O)c1c(Cl)cc(Cl)cc1Cl)NC1CCC(C(CCc2ccccc2)N2CCOCC2)CC1 (centres unmarked)")
22
>>> measurement("CN1CCN(C(c2ccc(F)cc2)C2CCN(C(=O)COCC3CCc4ccccc4N3S(=O)(=O)c3ccc(Cl)c(Cl)c3)CC2)CC1 (centres unmarked)")
12
>>> measurement("COc1cc(C)c(S(=O)(=O)N(C)CCOCC(=O)N2CCC(C(Cc3ccccc3)N3CCN(C)CC3)CC2)c(C)c1 (centres unmarked)")
13

## Input Look up inhibition at 1 µM for this compound: CN1CCN(C(CCc2ccccc2)C2CCN(C(=O)COCC3CCc4ccccc4N3S(=O)(=O)c3ccc(Cl)c(Cl)c3)CC2)CC1 (centres unmarked)
## Output 20
